Data provenance: patent US20260232767A1

# measurementDescription: Plasma concentrations (PK), Example 1
# Type: in vivo, human
# measurementConditions: human, plasma, oral, 50 mg, 50 mg QD; Week 8; Trough; read-out: Plasma concentration, Geometric Mean
quantityKind: level at 1344 h (ng/mL)
Express it in ng/mL; write the number only.

Query (compound): CC(=O)NCCCC[C@@H]1NC(=O)[C@H](Cc2c[nH]c3c(C)cccc23)NC(=O)[C@H]([C@@H](C)O)NC(=O)[C@H](CC(N)=O)NC(=O)[C@@H](NC(C)=O)C(C)(C)SSC(C)(C)[C@@H](C(=O)N[C@@H](Cc2ccc(OCCN)cc2)C(=O)N[C@@H](Cc2ccc3ccccc3c2)C(=O)NC2(C(=O)N[C@@H](CCC(=O)O)C(=O)N[C@@H](CC(N)=O)C(=O)N[C@@H](Cc3cccnc3)C(=O)N(C)CC(N)=O)CCOCC2)NC1=O [IL-23 receptor antagonist peptide] ; field requested: level at 1344 h
0.111
